# test-name: Cell Viability - LYMP1-002 - Assay at 16 hr (AID 948);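 also: 0% = DMSO alone and full effect = 92 µM tetraoctylammonium bromide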
# condition-description: LYMP1-002 lymphoblastoid cell viability; series mostly up to 92.2 µM
Inconclusive results are not listed. Activity calls are given as the source filed them. Calls follow the shape of the dose curve; as a rule, active = well fitted cell-killing curve with a large enough effect; inconclusive = small, poorly fitted or top-dose-only effect; inactive = flat fitted curve, though single readings scatter.
Bench note: report the call from active, inactive

# example entries with known answers
[
  {
    "molecule": "C/C=C\\c1ccc(OC)cc1",
    "class-assignment": "inactive"
  },
  {
    "molecule": "Cc1ccc(N)c([N+](=O)[O-])c1",
    "class-assignment": "inactive"
  },
  {
    "molecule": "CN(C)C=O",
    "class-assignment": "inactive"
  }
]

How did this test come out for COc1c2ccoc2cc2oc(=O)ccc12 ? inactive

How did this test come out for CCC(C)c1ccccc1O (stereo not given) ? inactive

How did this test come out for CCCCCCCCCCCCCCC1CO1 (stereo not given) ? inactive

How did this test come out for C=C(C)C1CC=C(C)C(O)C1 (stereo not given) ? inactive

How did this test come out for O=C(/C=C/c1ccc(O)c(O)c1)O[C@@H](C(=O)O)[C@@H](OC(=O)/C=C/c1ccc(O)c(O)c1)C(=O)O ? inactive

How did this test come out for CC(C)=CCCC(C)CCO (stereo not given) ? inactive

====

# test-name: qHTS for Inhibitors of the vitamin D receptor (VDR): Hit Validation using a Texas Red Assay (AID 602201); also: potency is read from the fitted curve at half-maximal effect
# condition-description: VDR coregulator binding, Texas Red fluorescence polarization, agonist-bound VDR ligand-binding domain; series mostly up to 57.1 µM
Records with an inconclusive call do not appear. The source made the active and inactive calls. Calls follow the shape of the dose curve; as a rule, active = well fitted curve in the direction sought with a large enough effect; inconclusive = small, poorly fitted or top-dose-only effect, or another doubt; inactive = no such curve, though single readings can be large or run the other way.
readout: Potency

Field: example entries. Status: answers known.
[
  {
    "compound": "Cc1ccc(/C(O)=C2/C(=O)C(=O)OC2c2ccc(Cl)cc2)cc1 (configuration not stated)",
    "Potency": "7.08 µM (active)"
  },
  {
    "compound": "O=C1ON=C(c2ccccc2)/C1=C/c1ccc(-c2ccccc2[N+](=O)[O-])o1",
    "Potency": "4.47 µM (active)"
  }
]

Record Potency per entry; entries follow.
1. O=C(NC1(O)C(=O)c2ccccc2C1=O)c1ccccc1
2. CC1=C(CO)C(=O)OC([C@@H](C)C2CC[C@H]3C4C[C@H]5O[C@]56[C@@H](O)C=CC(=O)[C@]6(C)C4CC[C@]23C)C1 (some centres not stated)
3. COc1ccc2c(c1)Cc1sc(NC(=O)c3cccc(C)c3)nc1-2

1: 6.31 µM (active); 2: 11.2 µM (active); 3: 10 µM (active)

Record Potency per entry; entries follow.
1. CC1=NOC(=O)/C1=C\c1ccc(-c2ccc(Br)cc2)o1
2. COc1ccc(S(=O)(=O)Nc2cc(SCC(=O)O)c(O)c3ccccc23)cc1

1: 3.16 µM (active); 2: 3.55 µM (active)

====

# assayed-target: Rap guanine nucleotide exchange factor 3 (Homo sapiens) (UniProt O95398)
# test-name: Counterscreen qHTS for agonist of cAMP-regulated guanine nucleotide exchange factor 3 (EPAC1) (AID 1645889); also: % of control where 0% means no effect; nearly all actives have a fitted effect of over 40% in size
# condition-description: EPAC1 Rap1B-BODIPY-GDP exchange, fluorescence; series mostly up to 154 µM
Records with an inconclusive call do not appear. Activity calls are given as the source filed them. Calls come from the whole dose curve; as a rule, active = well fitted activation curve with a large enough effect; inconclusive = small, poorly fitted or top-dose-only effect, or another doubt; inactive = no such curve, though single readings can be large or run the other way.
readout: activation

Field: example entries. Status: answers known.
[
  {
    "compound": "COc1ccccc1CNC(=O)C1(C)CCN1Cc1ccc(OC(F)(F)F)cc1 (centres undefined)",
    "activation": "inactive"
  },
  {
    "compound": "CCOC(=O)C1CCCN(C(=O)C2(c3ccc(Cl)cc3)CCCC2)CC1 (centres undefined)",
    "activation": "inactive"
  },
  {
    "compound": "CCC(CC)C(=O)Nc1nc(-c2ccc3c(c2)CCN3C(=O)C2CC2)c(C)s1",
    "activation": "26.5% [at 30.8 µM] (inactive)"
  },
  {
    "compound": "COc1cccc(C(=O)Nc2nnc(S(=O)(=O)Nc3cccc(C)c3)s2)c1",
    "activation": "inactive"
  },
  {
    "compound": "O=C(Nc1ccc(NC(=O)c2ccco2)c(Cl)c1)c1ccc2c(c1)OCCO2",
    "activation": "inactive"
  }
]

Record activation per entry; entries follow.
1. O=C(CCN1C(=O)S/C(=C\c2ccc(Cl)cc2)C1=O)Nc1ccc(C(=O)O)cc1
2. Cc1cc(C)cc(N(CC(=O)Nc2ccc(C(F)(F)F)cc2)S(=O)(=O)c2c(C)[nH]c(=O)[nH]c2=O)c1
3. CC(=O)Nc1sc(/C(C#N)=C\c2cccc(Cl)c2)nc1-c1ccc(C)cc1
4. COc1ccccc1CNC(=O)C1(C)CCN1Cc1ccc2ccccc2c1 (centres undefined)
5. COc1ccc(-c2nc(N/N=C(\C)c3ccc(O)cc3)c3ccccc3n2)cc1
6. COc1ccc(C2CC(c3cccs3)=NN2C(=O)c2ccco2)cc1OC (centres undefined)
7. Cc1cc(Nc2ncc(Cl)cc2Cl)n(-c2ccccc2C)n1
8. COC(=O)c1ccc2nc(-c3ccc(Cl)cc3)c(Cc3ccccc3OC)n2c1

1. inactive
2. inactive
3. 23.7% [at 30.8 µM] (inactive)
4. inactive
5. 22.7% [at 30.8 µM] (inactive)
6. 31.8% [at 30.8 µM] (inactive)
7. inactive
8. inactive

Give the measured activation for CC(=O)c1cc(CC(=O)N2CCc3c([nH]c4ccccc34)C2c2ccccn2)cs1 (centres undefined) inactive

Entry source: PubChem BioAssay (NCATS)
